molecular target: SpNbp2; test: SPOT peptide array binding signal intensity (averaged, normalized) (arbitrary units (background-subtracted, floor 0; scale differs between SH3 domains)); higher = stronger binding of the SH3 domain to the peptide
# binarize SPOT peptide array binding signal intensity: threshold 200 inclusive, high side Y, low side N

> print(dat)
            binder  class
1  RRLRDKYKLPIVDAD      N
2  NPNRRAPRRPLSTQH      Y
3  NAGIRPKFILALNDE      N
4  LASNSPPVYPKRIRH      N
5  KDKSRPPRPPPKPLH      N
6  RRASLFPRDPKRLRP      Y

Now, please, on to the next binder.
## Input Does the reported SPOT peptide array binding signal intensity for RRTRLRPPTPLSQLL fall at or above the 200 mark?
## Output N
